- tested-target: AMPK
- assay-method-text: AMPK activation, enzyme-linked immunosorbent assay
- Type: biochemical
- stated-conditions: Table 13, compounds of Table 6
pEC50: −log10 of the molar value.
measurement-name: pEC50

smiles-input | tested-target | result
N#Cc1ccc(CN2CCC(NC(=O)c3cc4cc(C(=O)N5CCN(Cc6ccc(-c7ccccn7)cc6)CC5)ccc4o3)CC2)cc1 | AMPK | > 7.00

# input Reported pEC50 for AMPK, given N#Cc1ccc(N2CCC(C(=O)Nc3ccc4oc(C(=O)N5CCC(Oc6ccc(C(F)(F)F)cc6)CC5)cc4c3)CC2)cc1 ?
# output > 7.00

# input Reported pEC50 for AMPK, given N#Cc1ccc(CN2CCC(NC(=O)c3cc4cc(C(=O)N5CCN(Cc6ccc(S(=O)(=O)C7CC7)cc6)CC5)ccc4o3)CC2)cc1 ?
# output > 7.00

----------
Entries annotated with measured pEC50
- tested-target: AMPK
- assay-method-text: AMPK activation, enzyme-linked immunosorbent assay
- Assay type: biochemical
- stated-conditions: Table 13, compounds of Table 6
pEC50: −log10 of the molar value.

Worked set:
smiles-input | pEC50
N#Cc1ccc(CN2CCC(NC(=O)c3cc4cc(NC(=O)C5CCN(c6ccc(C#N)cn6)CC5)ccc4o3)CC2)cc1 | > 7.00
N#Cc1ccc(CC(=O)Nc2ccc3oc(C(=O)NC4CCN(Cc5ccc(C#N)cc5)CC4)cc3c2)cc1 | 5.00 to 6.00
N#Cc1ccc(CN2CCC(NC(=O)c3cc4cc(NC(=O)c5cnn(Cc6ccc(C(F)(F)F)cc6)c5)ccc4o3)CC2)cc1 | 5.00 to 6.00
N#Cc1ccc(CN2CCC(NC(=O)c3cc4cc(NC(=O)C5CCN(Cc6ccc(C(F)(F)F)cc6)CC5)ccc4o3)CC2)cc1 | 6.00 to 7.00
N#Cc1ccc(CN2CCC(NC(=O)c3cc4cc(NC(=O)C5CCN(Cc6cnn(-c7ccccn7)c6)CC5)ccc4o3)CC2)cc1 | 5.00 to 6.00

# input Suppose we examine the compound CS(=O)(=O)c1ccc(CN2CCN(C(=O)c3ccc4oc(C(=O)NC5CCN(Cc6ccc(OC(F)(F)F)cc6)CC5)cc4c3)CC2)cc1 ; what pEC50 value has been reported?
# output 6.00 to 7.00

----------
- tested-target: AMPK
- assay-method-text: AMPK activation, enzyme-linked immunosorbent assay
- Assay type: biochemical
- stated-conditions: Table 12, compounds of Table 5
measurement-name: EC50

compound | EC50
O=C(NC1CCN(Cc2ccccc2)CC1)c1cccc(OC2CCN(c3ccc(C(F)(F)F)cc3)CC2)c1 | < 1000 nM
N#Cc1ccc(CN2CCC(NC(=O)c3cccc(O[C@@H]4CCN(Cc5ccc(C(F)(F)F)cc5)C[C@H]4F)c3)CC2)cc1 | < 1000 nM
CC(c1ccccc1)N1CCC(Oc2ccc(C(=O)NC3CCN(Cc4ccccc4)CC3)cc2F)CC1 (centres unmarked) | 1000 to 10000 nM
COc1ccc(CN2CCC(NC(=O)c3cccc(OC4CCN(CC5CCN(c6ccccc6)CC5)CC4)c3)CC2)cc1 | < 1000 nM
N#Cc1ccc(CN2CCC(NC(=O)c3cccc(OC4CCN(Cc5ccc(C(F)(F)F)cc5)CC4)c3)CC2)cc1 | < 1000 nM

# input Reported EC50 for AMPK, given COc1ccc(CN2CCC(NC(=O)c3cccc(OC4CCN(Cc5ccc(Oc6ccc(C#N)cc6)cc5)CC4)c3)CC2)cc1 ?
# output < 1000 nM

Reference source: patent US9409884B2
